molecular target: Human AMPK α2β2γ1 (Homo sapiens, UniProt O43741+P54646); construct: The full length cDNAs of human AMPK β2 (NM_005399.3) and human AMPK α2 (NM_006252.3); The full length cDNAs of human AMPK β2 (NM_005399.3); the full length cDNA of human AMPK γ1 (NM_002733.3) had been inserted into pET28b(+); 6×His (N); made in house; host or cells: Escherichia coli BL21 CodonPlus (DE3)-RIL; experiment: Test Example 2: activation of phosphorylated human AMPK α2β2γ1 (mobility-shift kinase assay, FL-Peptide 7); format: biochemical; details: maximum rate of increase in activity within the measurement range, control = 100%; read-out: Emax
Sequence (P54646 whole entry): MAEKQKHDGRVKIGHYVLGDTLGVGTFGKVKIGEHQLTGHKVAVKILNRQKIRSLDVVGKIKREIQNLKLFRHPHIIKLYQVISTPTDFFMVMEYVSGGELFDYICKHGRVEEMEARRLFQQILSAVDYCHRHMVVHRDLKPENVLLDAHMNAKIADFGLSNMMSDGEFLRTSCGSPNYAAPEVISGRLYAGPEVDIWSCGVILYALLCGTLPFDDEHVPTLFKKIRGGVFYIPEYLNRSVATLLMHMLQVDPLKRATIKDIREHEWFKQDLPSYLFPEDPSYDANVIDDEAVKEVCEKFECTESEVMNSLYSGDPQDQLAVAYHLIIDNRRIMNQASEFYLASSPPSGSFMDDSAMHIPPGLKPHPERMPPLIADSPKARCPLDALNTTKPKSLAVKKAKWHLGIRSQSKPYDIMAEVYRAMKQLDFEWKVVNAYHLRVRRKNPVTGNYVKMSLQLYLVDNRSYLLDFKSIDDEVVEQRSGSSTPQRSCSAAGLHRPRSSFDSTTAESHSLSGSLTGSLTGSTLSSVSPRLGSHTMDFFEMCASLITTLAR
Sequence (O43741 whole entry): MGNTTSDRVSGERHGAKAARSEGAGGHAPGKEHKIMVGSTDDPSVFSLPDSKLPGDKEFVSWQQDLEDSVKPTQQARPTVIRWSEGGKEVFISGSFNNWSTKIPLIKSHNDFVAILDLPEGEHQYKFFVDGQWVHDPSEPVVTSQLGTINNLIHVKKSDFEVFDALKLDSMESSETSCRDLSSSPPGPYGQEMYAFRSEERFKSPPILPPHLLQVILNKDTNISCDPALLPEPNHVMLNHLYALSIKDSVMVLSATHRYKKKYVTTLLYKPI
Sequence (P54619 whole entry partner): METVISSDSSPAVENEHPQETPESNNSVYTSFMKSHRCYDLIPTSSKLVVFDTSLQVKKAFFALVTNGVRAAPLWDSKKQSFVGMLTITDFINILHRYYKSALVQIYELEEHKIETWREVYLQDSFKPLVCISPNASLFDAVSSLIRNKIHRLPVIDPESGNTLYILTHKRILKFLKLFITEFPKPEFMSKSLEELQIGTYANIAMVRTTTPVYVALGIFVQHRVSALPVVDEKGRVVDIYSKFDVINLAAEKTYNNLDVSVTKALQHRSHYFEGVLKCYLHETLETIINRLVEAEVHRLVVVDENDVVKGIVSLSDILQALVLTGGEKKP
Metric: Emax (%)

* CN(C)CCOc1ccc(-c2ccc(-c3nc4cc(O[C@@H]5CO[C@H]6[C@@H]5OC[C@H]6O)[nH]c4cc3F)cc2)cc1 [Compound I-1-68] | 360
* CS(C)(=O)=Nc1ccc(-c2ccc(-c3nc4cc(O[C@@H]5CO[C@H](CO)C5)[nH]c4cc3Cl)cc2)cc1 [Compound I-1-02] | 510
* CS(C)(=O)=Nc1ccc(-c2ccc(-c3nc4cc(O[C@@H]5CO[C@H](CO)C5)[nH]c4cc3F)cc2)cc1 [Compound I-1-47] | 542

meta.source: patent US10478425B2
